Where these numbers come from: the supplement of paper PMC11246515

# PROCEDURE_SUMMARY: total protein half-life in vivo (active degradation + dilution); higher = more stable protein
# CONDITIONS: wild type E. coli NCM3722; growth: C-lim chemostat; doubling time 6 h
Label MET for high-side total protein half-life in vivo (at or above 5 h) and NOT MET for low-side total protein half-life in vivo (below it).

Kindly determine if total protein half-life in vivo recorded for MTDNNTALKKAGLKVTLPRLKILEVLQEPDNHHVSAEDLYKRLIDMGEEIGLATVYRVLNQFDDAGIVTRHNFEGGKSVFELTQQHHHDHLICLDCGKVIEFSDDSIEARQREIAAKHGIRLTNHSLYLYGHCAEGDCREDEHAHEGK [P0A9A9] is above or exactly 5 h.
NOT MET

Kindly determine if total protein half-life in vivo recorded for MFKKSVLFATLLSGVMAFSTNADDKIILKHISVSSVSASPTVLEDTIADIARKYNASSWKVTSMRIDNNSTATAVLYK is above or exactly 5 h.
NOT MET

Kindly determine if total protein half-life in vivo recorded for MIAELFTNNALNLVIIFGSCAALILMSFWFRRGNRKRKGFLFHAVQFLIYTIIISAVGSIINYVIENYKLKFITPGVIDFICTSLIAVILTIKLFLLINQFEKQQIKKGRDITSARIMSRIIKITIIVVLVLLYGEHFGMSLSGLLTFGGIGGLAVGMAGKDILSNFFSGIMLYFDRPFSIGDWIRSPDRNIEGTVAEIGWRITKITTFDNRPLYVPNSLFSSISVENPGRMTNRRITTTIGLRYEDAAKVGVIVEAVREMLKNHPAIDQRQTLLVYFNQFADSSLNIMVYCFTKTTVWAEWLAAQQDVYLKIIDIVQSHGADFAFPSQTLYMDNITPPEQGR [P0AEB5] is above or exactly 5 h.
MET

Kindly determine if total protein half-life in vivo recorded for MKPRQRQAAILEYLQKQGKCSVEELAQYFDTTGTTIRKDLVILEHAGTVIRTYGGVVLNKEESDPPIDHKTLINTHKKELIAEAAVSFIHDGDSIILDAGSTVLQMVPLLSRFNNITVMTNSLHIVNALSELDNEQTILMPGGTFRKKSASFHGQLAENAFEHFTFDKLFMGTDGIDLNAGVTTFNEVYTVSKAMCNAAREVILMADSSKFGRKSPNVVCSLESVDKLITDAGIDPAFRQALEEKGIDVIITGESNE is above or exactly 5 h.
MET

Kindly determine if total protein half-life in vivo recorded for MTQPLFLIGPRGCGKTTVGMALADSLNRRFVDTDQWLQSQLNMTVAEIVEREEWAGFRARETAALEAVTAPSTVIATGGGIILTEFNRHFMQNNGIVVYLCAPVSVLVNRLQAAPEEDLRPTLTGKPLSEEVQEVLEERDALYREVAHIIIDATNEPSQVISEIRSALAQTINC [P0A6E1] is above or exactly 5 h.
MET

Kindly determine if total protein half-life in vivo recorded for MRTTIAVVLGAISLTSAFVFADKPDVARSANDEVSTLFFGHDDRVPVNDTTQSPWDAVGQLETASGNLCTATLIAPNLALTAGHCLLTPPKGKADKAVALRFVSNKGLWRYEIHDIEGRVDPTLGKRLKADGDGWIVPPAAAPWDFGLIVLRNPPSGITPLPLFEGDKAALTAALKAAGRKVTQAGYPEDHLDTLYSHQNCEVTGWAQTSVMSHQCDTLPGDSGSPLMLHTDDGWQLIGVQSSAPAAKDRWRADNRAISVTGFRDKLDQLSQK is above or exactly 5 h.
NOT MET

Kindly determine if total protein half-life in vivo recorded for MAGESFILMGVSGSGKTLIGSKVAALLSAKFIDGDDLHPAKNIDKMSQGIPLSDEDRLPWLERLNDASYSLYKKNETGFIVCSSLKKQYRDILRKGSPHVHFLWLDGDYETILARMQRRAGHFMPVALLKSQFEALERPQADEQDIVRIDINHDIANVTEQCRQAVLAIRQNRICAKEGSASDQRCE is above or exactly 5 h.
NOT MET

Kindly determine if total protein half-life in vivo recorded for MDYVCSVVFICQSFDLIINRRVISFKKNSLFIVSDKIRRELPVCPSKLRIVDIDKKTCLSFFIDVNNELPGKFTLDKNGYIAEEEPPLSLVFSLFEGIKIADSHSLWLKERLCISLLAMFKKRESVNSFILTNINTFTCKITGIISFNIERQWHLKDIAELIYTSESLIKKRLRDEGTSFTEILRDTRMRYAKKLITSNSYSINVVAQKCGYNSTSYFICAFKDYYGVTPSHYFEKIIGVTDGINKTID is above or exactly 5 h.
NOT MET

Kindly determine if total protein half-life in vivo recorded for MELKDYYAIMGVKPTDDLKTIKTAYRRLARKYHPDVSKEPDAEARFKEVAEAWEVLSDEQRRAEYDQMWQHRNDPQFNRQFHHGDGQSFNAEDFDDIFSSIFGQHARQSRQRPATRGHDIEIEVAVFLEETLTEHKRTISYNLPVYNAFGMIEQEIPKTLNVKIPAGVGNGQRIRLKGQGTPGENGGPNGDLWLVIHIAPHPLFDIVGQDLEIVVPVSPWEAALGAKVTVPTLKESILLTIPPGSQAGQRLRVKGKGLVSKKQTGDLYAVLKIVMPPKPDENTAALWQQLADAQSSFDPRKDWGKA is above or exactly 5 h.
MET

Kindly determine if total protein half-life in vivo recorded for MMKTMRIAAIPGDGIGKEVLPEGIRVLQAAAERWGFALSFEQMEWASCEYYSHHGKMMPDDWHEQLSRFDAIYFGAVGWPDTVPDHISLWGSLLKFRREFDQYVNLRPVRLFPGVPCPLAGKQPGDIDFYVVRENTEGEYSSLGGRVNEGTEHEVVIQESVFTRRGVDRILRYAFELAQSRPRKTLTSATKSNGLAISMPYWDERVEAMAENYPEIRWDKQHIDILCARFVMQPERFDVVVASNLFGDILSDLGPACTGTIGIAPSANLNPERTFPSLFEPVHGSAPDIYGKNIANPIATIWAGAMMLDFLGNGDERFQQAHNGILAAIEEVIAHGPKTPDMKGNATTPQVADAICKIILR is above or exactly 5 h.
NOT MET

Kindly determine if total protein half-life in vivo recorded for MPFRSNNPITRDELLSRFFPQYHPVTTFNSGLSGGSFLIEHQGQRFVVRQPHDPDAPQSAFLRQYRALSQLPACIAPKPHLYLRDWMVVDYLPGAVKTYLPDTNELAGLLYYLHQQPRFGWRITLLPLLELYWQQSDPARRTVGWLRMLKRLRKAREPRPLRLSPLHMDVHAGNLVHSASGLKLIDWEYAGDGDIALELAAVWVENTEQHRQLVNDYATRAKIYPAQLWRQVRRWFPWLLMLKAGWFEYRWRQTGDQQFIRLADDTWRQLLIKQ is above or exactly 5 h.
MET

Kindly determine if total protein half-life in vivo recorded for MPKLRLIGLTLLALSATAVSHAEETRYVSDELNTWVRSGPGDHYRLVGTVNAGEEVTLLQTDANTNYAQVKDSSGRTAWIPLKQLSTEPSLRSRVPDLENQVKTLTDKLTNIDNTWNQRTAEMQQKVAQSDSVINGLKEENQKLKNELIVAQKKVDAASVQLDDKQRTIIMQWFMYGGGVLGLGLLLGLVLPHLIPSRKRKDRWMN [P0ADT8] is above or exactly 5 h.
MET
